Target: HLA-B*5101 (human)
Assay: 125I-probe peptide inhibition, purified HLA

Binder: FPAAPTPAA [p53.76.F1 (9-mer)]
IC50 / nM: 809
